- Protocol details: in vivo
- Cond: male, beagle, dog, po, 5 mg/kg, t1/2 (hr), oral half-life
Where a name gives a salt, the structure may show the parent alone.
Quantity: half-life

For the compound shown here, O=C(O)c1ccc(-c2ccc(/C=C3\SC(=S)N(Cc4ccccc4)C3=O)o2)cc1 [LA1 choline salt] , give the reported half-life.
~3.4 h

* * *

- Protocol details: Solubility estimation by aliquot addition and temperature cycling
- Format: physicochemical
- Cond: organic solvent or mixture, thermodynamic from solid; 20° C.; methanol; read-out: Approx. solubility
Quantity: solubility

For the compound shown here, O=C(O)c1ccc(-c2ccc(/C=C3\SC(=S)N(Cc4ccccc4)C3=O)o2)cc1 [LA1] , give the reported solubility.
< 10000 µg/mL

* * *

Hi there, I'd appreciate the recorded HPLC purity (%) for every entry that follows.
- Protocol details: Aqueous solubility by equilibration, HPLC analysis
- Assay type: physicochemical
- Cond: after slurrying in water 4-5 days (chemical stability)
Counter-ions that a name gives are not always drawn.

// worked examples, HPLC purity (%) included
Compound: O=C(O)c1ccc(-c2ccc(/C=C3\SC(=S)N(Cc4ccccc4)C3=O)o2)cc1 [LA1 choline salt]
HPLC purity (%): 75.51%
--
Compound: O=C(O)c1ccc(-c2ccc(/C=C3\SC(=S)N(Cc4ccccc4)C3=O)o2)cc1 [LA1 meglumine salt]
HPLC purity (%): 34.7%
--
Compound: C1CNCCN1
HPLC purity (%): 5.31%
--
Compound: NC(CO)(CO)CO
HPLC purity (%): 89.7%

For the compound shown here, [Ca] , give the reported HPLC purity (%).
5.58%

* * *

- Protocol details: in vivo
- Cond: male, Sprague-Dawley, rat, iv, 1 mg/kg, Vd
Quantity: Vd (L/kg)
Answers are plain numbers, in L/kg.

For the molecule shown here, O=C(O)c1ccc(-c2ccc(/C=C3\SC(=S)N(Cc4ccccc4)C3=O)o2)cc1 [LA1] , give the reported Vd.
2.39

* * *

- Protocol details: in vivo
- Cond: male, Sprague-Dawley, rat, Rat Cl (ml/min/kg)
Quantity: clearance

For the compound shown here, O=C(O)c1ccc(-c2ccc(/C=C3\SC(=S)N(Cc4ccccc4)C3=O)o2)cc1 [LA1] , give the reported clearance.
20 mL/min/kg

* * *

- Protocol details: in vivo
- Cond: male, Beagle, dog, po, 5 mg/kg, Plasma concentration
Counter-ions that a name gives are not always drawn.
Quantity: concentration at 2 h (ng/mL)
Numbers only, in ng/mL.

For the molecule shown here, O=C(O)c1ccc(-c2ccc(/C=C3\SC(=S)N(Cc4ccccc4)C3=O)o2)cc1 [LA1 choline salt] , give the reported concentration at 2 h.
1480

* * *

- Protocol details: in vivo
- Cond: male, beagle, dog, po, 3 mg/kg
Where a name gives a salt, the structure may show the parent alone.
Quantity: Cmax

For the compound shown here, O=C(O)c1ccc(-c2ccc(/C=C3\SC(=S)N(Cc4ccccc4)C3=O)o2)cc1 [LA1 choline salt] , give the reported Cmax.
685 ng/mL

* * *

- Protocol details: in vivo
- Cond: male, beagle, dog, po, 5 mg/kg, Plasma concentration
Counter-ions that a name gives are not always drawn.
Quantity: concentration at 2 h (ng/mL)
Give bare numbers, in ng/mL.

For the molecule shown here, O=C(O)c1ccc(-c2ccc(/C=C3\SC(=S)N(Cc4ccccc4)C3=O)o2)cc1 [LA1 choline salt] , give the reported concentration at 2 h.
1020
